Tested on: HL-60(TB) leukemia
experiment_summary: NCI tumour cell line growth inhibition, 48 h
Below is a list of entries, each paired with its recorded TGI value.
property: TGI

CN(C)C=Nc1ccc2nonc2c1 | > 100 µM
CC1=NN(c2nc(N)nc(COCc3nc(N)nc(N4N=C(C)CC4(C)C)n3)n2)C(C)(C)C1 | > 100 µM
CCCCCCCCCCCc1noc2c1C(=O)C(O)CC2 (stereo unspecified) | 65.5 µM
CC(C)CCC[C@@H](C)[C@H]1CCC2C3=CCn4c(=O)ccc(=O)n4C3CC[C@@]21C (stereo partly specified) | 0.49 µM
NC(=O)c1c2c(n3ccccc13)C(=O)c1ccccc1C2=O | > 100 µM
O=c1c(O)c(-c2ccccc2)n(O)c2ccc(Cl)cc12 | 62.8 µM
CCCN1C(=O)/C(=C/c2cccc(O)c2)SC1=Nc1ccc(OC)cc1 | > 50 µM
S=c1[nH]n2c(Cc3ccccc3)nnc2s1 | > 100 µM
Cc1ncc(CO)c(C=NCCCCCCN=Cc2c(CO)cnc(C)c2[O-])c1[O-].[Cu+2] | > 100 µM
CC1CCN(CCC(=O)CC(c2ccccc2)c2c(O)c3ccccc3oc2=O)CC1 (stereo unspecified) | > 100 µM
CN(C)C(=O)Nc1c([N+](=O)[O-])cc(C(F)(F)F)cc1[N+](=O)[O-] | 48 µM

====

Below is a list of entries, each paired with its recorded TGI value.
System: U251 CNS
experiment_summary: NCI tumour cell line growth inhibition, 48 h
property: TGI

Cc1ccc(NC(=O)C(=O)C(C2C(C)CC(=O)C2CC(=O)O)[N+](=O)[O-])cc1 (stereo not given) | > 100 µM
COc1cc(/C=C/c2ccc(/C=C/c3cc(OC)c(OC)c(OC)c3)cc2)cc(OC)c1OC | 29.5 µM
N#Cc1ccc(Oc2nc3ccccc3nc2C(=O)O)cc1 | > 100 µM
CC1=NN(c2cccc(Cl)c2)C2(SCC(=O)N2c2nc3ccccc3s2)/C1=C\c1ccccc1 (stereo not given) | 44.3 µM
COc1ccc2c(c1)CN1C(=N2)CSC1c1c(Cl)cccc1[N+](=O)[O-] (stereo not given) | 37 µM
CC(C)(C)c1cc(Cc2ccc([N+](C)(C)C)cc2)c(O)c(C(C)(C)C)c1 | 25.4 µM
Cc1c(C(=O)O)nc(/C=C/C(=O)O)[nH]c1=O | > 100 µM
CCCCCCCCCCCC(=O)c1c(O)cc(C)oc1=O | > 100 µM
CC(C)OP(=O)(OC(C)C)C([CH2][Sn]([CH3])([CH3])[Cl])P(=O)(OC(C)C)OC(C)C | 46.3 µM
CN(C)C(=O)Nc1c([N+](=O)[O-])cc(C(F)(F)F)cc1[N+](=O)[O-] | > 100 µM

====

Test system: UACC-62 melanoma
experiment_summary: NCI tumour cell line growth inhibition, 48 h
Below is a list of entries, each paired with its recorded TGI value.
property: TGI (µM)

CC(C)(C)c1ccc2c(c1)C(O)(c1ccccc1)c1cc(C(C)(C)C)ccc1C2(O)C(F)(F)F (stereo unspecified) | 3.66
COc1ccc(C(=O)N/N=C2\C(=O)c3c(C)cc(C)cc3CC2(C)C)cc1 | 31.6
CCOc1ccc2nc(S/C(=C/C=C(C#N)C#N)c3ccc(Cl)cc3)sc2c1 | 12.5
COc1cc(-c2cc(/C=C/C(=O)c3ccc(N)cc3)[nH]n2)cc(OC)c1OC | 3.58
CC(C)(C)c1cc(Cc2ccc([N+](C)(C)C)cc2)c(O)c(C(C)(C)C)c1 | 27.9
CCCCCC(=O)N[C@H]1CCc2cc(OC)c(OC)c(OC)c2-c2ccc(SC)c(=O)cc21 | 29.3
COCCCN(Cc1cc(OC)c(OC)c(OC)c1)C(=S)Nc1cccc(Cl)c1 | 44.7
COc1cc2c(/C=C3/C(=O)Nc4ccc(O)cc43)c(Cl)[nH]c2cc1C | 3.08
CC(C)CCC[C@@H](C)[C@H]1CCC2C3=CCn4c(=O)ccc(=O)n4C3CC[C@@]21C (stereo partly specified) | 1.93

====

System: M14 melanoma
experiment_summary: NCI tumour cell line growth inhibition, 48 h
property: TGI

CN1C(=O)/C(=C/c2c(Cl)[nH]c3ccccc23)c2ccccc21 | 65.8 µM
Cc1nnc(N)nc1/C=C\c1ccc(N(C)C)cc1 | > 100 µM
C/C=C(\C)C(=O)O[C@H]1C=CC(=O)O[C@H]1CC[C@H](O)[C@H](C)O | 21.9 µM
CCOc1ccc(N=NC2C(=O)N(C(=O)CC(=O)Nc3ccc(C)cc3)N=C2C)cc1 (configuration not stated) | > 100 µM
O=C(CCc1n[nH]c(=S)o1)Nc1cc(Cl)c(Cl)cc1Cl | > 100 µM
N/N=C(/Cc1ccccc1)NNC(N)=S | > 100 µM
CCOC(=O)c1sc2nc(SC)nc(N3CCCCC3)c2c1N | > 100 µM
C[C@H](O)CNc1cc(-c2[nH]c3cccnc3c2-c2ccc(F)cc2)ccn1 | > 25 µM
CCCCCC(/C=C/C1CCC(=O)C1)OCOCCOC (configuration not stated) | > 100 µM
O=c1c(O)c(-c2ccccc2)n(O)c2ccc(Cl)cc12 | > 100 µM
Oc1c(-c2ccccc2)nc2ccccn12 | > 100 µM
O=C1C(=C/C=C2/SC(c3ccccc3)(c3ccccc3)c3ccccc32)C(=O)c2ccccc21 | > 100 µM
COCCCN(Cc1cc(OC)c(OC)c(OC)c1)C(=S)Nc1cccc(Cl)c1 | 51.8 µM
CC(NNC(=S)N1CCCCCC1)c1cccnn1 (configuration not stated) | 4.94 µM
CC(=O)N(C)c1ccc2ncccc2c1[N+](=O)[O-] | > 100 µM
COc1ccc(NC(=S)N=Nc2c(O)[nH]c3ccccc23)cc1 | > 100 µM
CC1=C(C(=O)Nc2cc(F)c(F)cc2F)C(c2ccc3c(c2)OCO3)C(C(=O)Nc2cc(F)c(F)cc2F)=C(C)N1 | > 100 µM
O=c1c2c([nH]c3cc4c(cc13)OCO4)-c1ccccc1C2 | 46.5 µM
CCc1c2c(nc3ccc(OC(=O)NCc4ccc(B5OC(C)(C)C(C)(C)O5)cc4)cc13)-c1cc3c(c(=O)n1C2)COC(=O)[C@]3(O)CC | 0.104 µM
O=CC1C(Cl)=Nc2nc3ccccc3n2C1c1ccc([N+](=O)[O-])cc1 (configuration not stated) | > 100 µM
COc1cc2c(/C=C3/C(=O)Nc4ccc(O)cc43)c(Cl)[nH]c2cc1C | 2.02 µM
COc1ccc2nc3c([N+](=O)[O-])ccc4c3c(c2c1)N(CCCN(C)C)C(=S)N4CCCN(C)C | 20.4 µM

====

Tested on: MALME-3M melanoma
experiment_summary: NCI tumour cell line growth inhibition, 48 h
property: GI50

Nc1cc(N)c2nc(-c3ccccc3)c(Sc3ccc(Cl)c(Cl)c3)nc2c1 | 19.6 µM
C/C=C(\C)C(=O)O[C@H]1C=CC(=O)O[C@H]1CC[C@H](O)[C@H](C)O | 4.62 µM
CN1C(=O)CC2(C)c3cc(O)ccc3N(C)C12 (centres undefined) | > 75 µM
CCC1=C(C)c2cc3[n-]c(cc4nc(c(C=O)c5[n-]c(cc1n2)c(C)c5CC)C(C)=C4CC)c(C)c3CC.[Ni+2] | > 100 µM
CN1C(=O)/C(=C/c2c(Cl)[nH]c3ccccc23)c2ccccc21 | 25.5 µM
Cc1ccc(-c2cc3c(NC(=O)C4CC4)ncnc3o2)cc1 | > 25 µM
Cc1ccc(NCCN2CCCCC2)c2c(=O)c3ccccc3sc12 | 1.19 µM
Oc1ccccc1N=Cc1c(O)ccc2ccccc12 | 5 µM
CC(C)OP(=O)(OC(C)C)C([CH2][Sn]([CH3])([CH3])[Cl])P(=O)(OC(C)C)OC(C)C | 16.3 µM

====

Below is a list of entries, each paired with its recorded TGI value.
Tested on: CCRF-CEM leukemia
experiment_summary: NCI tumour cell line growth inhibition, 48 h
property: TGI

O=S(=O)(O)c1ccc(N=Nc2ccc(N=Nc3c(O)ccc4ccccc34)c(S(=O)(=O)O)c2)cc1 | > 100 µM
CCOc1cc(C(c2c(O)c3ccccc3oc2=O)c2c(O)c3ccccc3oc2=O)ccc1OC | > 100 µM
Cn1c2c(c3ccc(-c4ccn[nH]4)cc3c1=O)C(=O)c1ccccc1-2 | > 100 µM
CS(=O)(=O)Nc1ccc(Nc2c3ccccc3nc3cc(N)ccc23)cc1 | 2.04 µM
COc1ccc2cc(C(=O)Nc3ccc(O)c(C(=O)O)c3)ccc2c1OC | > 100 µM
O=C1OC(c2cccc(C(F)(F)F)c2)c2ccc3ccccc3c21 (configuration not stated) | > 100 µM
Cc1cc(C)c(C#N)c(SCC(=O)c2sc3c(C#N)c(C)cc(C)[n+]3c2[O-])n1 | > 100 µM
Oc1ccccc1N=Cc1c(O)ccc2ccccc12 | 47.1 µM
CC(C)(C)c1cc(Cc2ccc([N+](C)(C)C)cc2)c(O)c(C(C)(C)C)c1 | 29.1 µM
O=C(O[C@H]1CN[C@H](C#Cc2cc3ncnc(Nc4ccc5c(cnn5Cc5ccccc5)c4)c3s2)C1)N1CCOCC1 | > 25 µM
N#Cc1cccc(N2C(=O)c3ccc(C(=O)c4ccc5c(c4)C(=O)N(c4cccc(C#N)c4)C5=O)cc3C2=O)c1 | > 100 µM
Cc1ccc(C(N)=Nc2ccccc2)cc1 | > 100 µM
CCOCc1cc(=O)c2c(O)cc3c(c2o1)CCC(C)(C)O3 | > 100 µM
CSCCC(NC(=O)CNC(=O)C(CC(=O)O)NC(=O)C(NC(=O)C(NC(=O)C(NC(=O)CNC(=O)C(CCC(N)=O)NC(=O)C(CCSC)NC(=O)C(CC(=O)O)NC(=O)C(C)NC(=O)C(C)NC(=O)C(NC(=O)C(CO)NC(=O)C(N)CC(C)C)C(C)O)C(C)C)C(C)C)C(C)O)C(=O)NC(C)C(=O)NC(CO)C(=O)NCC(=O)NC(CC(C)C)C(=O)NC(CC(=O)O)C(=O)NC(CCCCN)C(=O)NC(CC(=O)O)C(=O)NC(Cc1ccc(O)cc1)C(=O)NC(CC(C)C)C(=O)NC(CCCCN)C(=O)N1CCCC1C(=O)NC(CC(=O)O)C(=O)NC(CC(=O)O)C(=O)O (configuration not stated) | > 82.5 µM
O=P(O)(O)OC1OC(CO)C(O)C(O)C1O (configuration not stated) | > 100 µM
Cc1ccc(S(=O)(=O)NC2=NCCN2C(=S)SN2CCn3c2nsc3=S)cc1 | 51.9 µM
CC1CN=C(N(C(=O)Nc2ccccc2)c2ccccc2)S1 (configuration not stated) | 64 µM
